The measured values listed here are drawn from PubChem BioAssay (EPA / NIEHS).

# Read-out: CYP2E1 (gene 1571)
# methodDescription: LTEA_HepaRG_CYP2E1: Life Technologies and Expression Analysis (LTEA) Assay for CYP2E1 using HepaRG (AID 2283485)
# testSettings: mRNA level, 48 h; actives raise or lower the signal
Active and inactive are the calls of the source. Rule for the calls: active = hit-call score of the fitted dose curve at least 0.9, where 1 is the maximum; inactive = score below 0.9.
I would appreciate it if you answered using one of these outcomes: true for active, false for inactive

Check out these entries, answers already filled in.
CC(C)(C)c1ccccc1	false
NC(=Nc1ccccc1)Nc1ccccc1	false
CN(C)CCCN(C)CCCN(C)C	false
O=C(O)c1cccnc1	false
CC(=O)OC1CC(C)OC(C)O1 (stereo not given)	false

Prompt line: In this assay, the call recorded for C#CC(O)C(CC)CCCC (stereo not given) was what?
Response line: false

Prompt line: And for CCCCCCCCCCCCCCCCO ?
Response line: true

Prompt line: And for CC1(C)C(=O)NC(=O)N1CO ?
Response line: false

Prompt line: And for Cc1cc(SC2=C(O)C[C@@](CCc3ccc(N)cc3)(C(C)C)OC2=O)c(C(C)(C)C)cc1CO ?
Response line: true

Prompt line: And for Nc1nc(=S)c2[nH]cnc2[nH]1 ?
Response line: true
